Data origin: ChEMBL document CHEMBL1201862

System: T47D
Test: NCI tumour cell line growth inhibition, 48 h
Calls of active or inactive are those of the source. No stated cut-off is given here; in the data, active = GI50 up to about 1.1 µM and inactive = higher.
measured-quantity: GI50

>>> reported_result("CCOC(=O)C1(C#N)C2(C#N)C(N)=NC(ON=C(C)C)(ON=C(C)C)C12C#N (stereo unspecified)")
"> 100 µM (inactive)"
>>> reported_result("C=C(COCO)C(C)=O")
"15.7 µM (inactive)"
>>> reported_result("O=C1c2ccccc2-n2c1nc1ccc([N+](=O)[O-])cc1c2=O")
"25.9 µM (inactive)"
>>> reported_result("Cc1ccc(S(=O)(=O)N2CCc3cc(O)c([N+](=O)[O-])cc32)cc1")
"> 100 µM (inactive)"
>>> reported_result("CCOC(=O)C1=C(C)NC(C)=C(C(=O)OCC)C1c1ccc(C)cc1")
"39.9 µM (inactive)"
>>> reported_result("Cc1cccc(CNc2[nH]cnc3nncc2-3)c1")
"78.3 µM (inactive)"
